# Measured Target: WT STING (Homo sapiens, UniProt Q86WV6, H232R)
# Sequence (Q86WV6 140-343 H232R): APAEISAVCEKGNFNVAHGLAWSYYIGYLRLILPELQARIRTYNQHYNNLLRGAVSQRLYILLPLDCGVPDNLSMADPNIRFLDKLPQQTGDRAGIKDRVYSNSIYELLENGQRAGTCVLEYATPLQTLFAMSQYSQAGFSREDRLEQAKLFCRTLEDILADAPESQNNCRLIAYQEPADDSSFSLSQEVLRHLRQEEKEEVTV
# Assay Comment: Differential scanning fluorimetry (DSF) with WT STING
# Format: binding
# Design: 8xHis (N, cleaved yes); SUMO (N, cleaved yes); made in house; host or cells: E. coli Rosetta-gami B (DE3)
# Experimental Parameters: thermal shift vs apoprotein; 150 μM CDN; truncated human WT STING 0.1 mg/ml
Quantity: DSF ΔTm (° C.) WT STING (°C)
Report as a plain number; the unit °C is understood.

Exercise: # get_value(readout='DSF ΔTm (° C.) WT STING', item= Nc1ncnc2c1ncn2[C@@H]1C[C@@H]2COP(=O)(S)O[C@@H]3[C@@H](COP(=O)(S)O[C@H]2[C@H]1F)C[C@@H](n1cnc2c(N)ncnc21)[C@@H]3F (single isomer, unassigned) [Compound 128b] )
Key: 12.2

Exercise: # get_value(readout='DSF ΔTm (° C.) WT STING', item= Nc1nc2c(ncn2[C@@H]2C[C@@H]3COP(=O)(O)OC4C(F)[C@H](n5cnc6c(N)ncnc65)O[C@@H]4COP(=O)(O)OC3C2O)c(=O)[nH]1 (single isomer, unassigned) [Compound 105] )
Key: 0.8

Exercise: # get_value(readout='DSF ΔTm (° C.) WT STING', item= Nc1nc2c(ncn2[C@@H]2C[C@@H]3COP(=O)(O)O[C@H]4[C@@H](O)[C@H](n5cnc6c(N)ncnc65)O[C@@H]4COP(=O)(O)O[C@H]3[C@H]2O)c(=O)[nH]1 [Compound 101] )
Key: 3.6

Exercise: # get_value(readout='DSF ΔTm (° C.) WT STING', item= Nc1nc2c(ncn2[C@@H]2C[C@@H]3COP(=O)(S)O[C@H]4[C@@H](F)[C@H](n5cnc6c(N)ncnc65)O[C@@H]4COP(=O)(S)O[C@H]3C2)c(=O)[nH]1 (single isomer, unassigned) [Compound 129d] )
Key: 13.7

Exercise: # get_value(readout='DSF ΔTm (° C.) WT STING', item= Nc1nc2c(ncn2[C@@H]2O[C@@H]3COP(=O)(O)OC4C(O)[C@H](n5cnc6c(N)ncnc65)C[C@@H]4COP(=O)(O)OC3C2F)c(=O)[nH]1 (single isomer, unassigned) [Compound 109] )
Key: 8.9
